binders and their reported cAMP EC50
Molecular target: human glucagon receptor (human) (UniProt P47871)
Sequence (P47871 26-477): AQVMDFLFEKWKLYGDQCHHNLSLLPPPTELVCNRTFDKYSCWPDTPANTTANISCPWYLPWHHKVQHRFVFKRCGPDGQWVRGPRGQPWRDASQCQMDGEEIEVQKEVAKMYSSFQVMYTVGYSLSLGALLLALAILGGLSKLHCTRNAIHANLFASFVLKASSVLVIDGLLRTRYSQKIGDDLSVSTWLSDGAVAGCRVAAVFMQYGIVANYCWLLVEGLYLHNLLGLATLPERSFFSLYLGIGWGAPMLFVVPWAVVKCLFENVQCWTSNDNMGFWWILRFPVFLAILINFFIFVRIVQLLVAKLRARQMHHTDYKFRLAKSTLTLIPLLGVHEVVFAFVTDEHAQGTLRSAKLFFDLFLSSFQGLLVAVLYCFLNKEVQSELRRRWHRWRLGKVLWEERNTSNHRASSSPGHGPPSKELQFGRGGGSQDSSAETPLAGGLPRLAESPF
Assay: cell-based or functional assay

Here's what some known entries look like.
[[record]]
binder = "IP373 (Fc fusion) YSEGTHTSDFSKLLERQAIDEFIAWLLKGGAAAGGSGSTASSGSGSATGGGGAATHTCPPC"
parameter_measured = "cAMP EC50"
reading = "> 6790 nM"

[[record]]
binder = "IP334 (Fc fusion) YSEGTFTSDYSIALAAAAQQDFVNWLLKGGGGGGGSGGGGSGGGGSGGGGSGGGGSGGGGSA"
parameter_measured = "cAMP EC50"
reading = "> 455 nM"


Okay, next one:
Task item: Recorded cAMP EC50 of IP311 (Fc fusion) YSEGTFISDYSIALAAAAIDDFVNWLLAGGGGGGGSGGGGSGGGGSGGGGSATHTCPPC , please.
Reply: > 2420 nM

// provenance: patent US20160185837A1
